Sourced from the RNAGym collection of RNA variant scans (doi:10.1093/molbev/msab373)

Entries and their reverse-splicing fitness values follow.
B1: Azoarcus group I ribozyme (parent)
chain: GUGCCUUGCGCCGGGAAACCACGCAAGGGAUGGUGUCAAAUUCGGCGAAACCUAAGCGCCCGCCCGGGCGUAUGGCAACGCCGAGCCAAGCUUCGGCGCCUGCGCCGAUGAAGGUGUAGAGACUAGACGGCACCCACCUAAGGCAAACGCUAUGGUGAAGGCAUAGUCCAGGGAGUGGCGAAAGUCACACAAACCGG

- Variants of: B1
- Procedure Text: reverse-splicing fitness (ratio to wild type); higher = more active; in vitro selection; Mg2+ level not given
Quick one: just the number, no unit, thanks!

Example entries and their recorded answers appear below.
C82A A111G A120C A145G C150A U176C = 0.0253
C82G A111C A120U C150U C169U = 0.00568
A111U A145U C150A C169G = 0.0109

# reverse-splicing fitness lookup, item C82G A145U C150G U176A
0.0361

Any idea what reverse-splicing fitness was measured for C82U A111U A120C A145U C150G C169A ?
0.00868

Fill blank: measured reverse-splicing fitness of the variant C82G A111G A120G A145C C150A C169G U176A is ____.
0.0249

Dear colleague, I am looking for the recorded reverse-splicing fitness of the following variant: A111U A120C A145G C169U U176G
0.00517

Requested field: reverse-splicing fitness. Item: A111U A120G A145C C169A
0.11

Quick one: reverse-splicing fitness for C82A A120C C150A C169A U176A ?
0.0213

Query: reverse-splicing fitness; subject: C82G A111U A120C A145G C150A C169A U176A
0.02

Given the entry C82G A111G A120U A145G C169A U176A , report its measured reverse-splicing fitness.
0.00574

// returns reported reverse-splicing fitness for input A111C A120U A145G C150A C169A U176C
0.00438

Quick one: reverse-splicing fitness for C82U A111G A120G A145C C150G U176C ?
0.00614

reverse-splicing fitness lookup needed for A111U A120C C169U , thanks.
0.174

If you can, please state the reported reverse-splicing fitness value of C82G A111G A120C A145G C169U U176G .
0.00492

Field request: reverse-splicing fitness | item: C82G A111C C150G C169G U176C
0.00598

Can you look up the measured reverse-splicing fitness of C82A A111G A120C A145G C150U C169G U176A for me?
0.0161

What value of reverse-splicing fitness has been recorded for this entry: C82A A111G A120U A145G C150U C169G
0.00703

Which reverse-splicing fitness reading was recorded for the variant C82A A120G C169G U176A ?
0.0203

Fill blank: measured reverse-splicing fitness of the variant A111G A120G A145U C150U C169G is ____.
0.206

Sample A111G C169G U176A — what was its reverse-splicing fitness?
0.0309

For C82G A111U A120U A145G C169G , what is its reported reverse-splicing fitness?
0.00479
